# Experiment Description: Metabolites of DVS observed by LC/MS in dog plasma, urine and feces
# Format: in vivo, beagle dogs
# Condition Details: P: plasma, U: urine, F: feces
# Excerpt: An Agilent Model 1100 HPLC system (Agilent Technologies, Wilmington, Del.) including an autosampler and diode array UV detector was used for LC/MS analysis. The UV detector was set to monitor 200 to 400 nm. Separations were accomplished on a 5 micron Phenomenex Luna C18(2) column, 150×2 mm (Phenomenex). […] For selected LC/MS analyses, radiochromatograms were acquired using a β-RAM model 3 radioactivity flow detector (IN/US Systems Inc., Tampa, Fla.) equipped with a solid scintillation flow cell. […]
Quantity Name: Matrix (metabolite observed by LC/MS)

| Compound | Quantity Name | Measured |
| --- | --- | --- |
| NCC(c1ccc(O)cc1)C1(O)CCCCC1 (stereo not drawn) [Metabolite M14, N,N,O-tridesmethylvenlafaxine] | Matrix (metabolite observed by LC/MS) | U, F |
| CN(C)CC(O)(c1ccc(O)cc1)C1(O)CCCCC1 (stereo not drawn) [Metabolite M9, Hydroxy DV] | Matrix (metabolite observed by LC/MS) | U, F |

----------
# Experiment Description: Metabolites of DVS observed by LC/MS in rat plasma, urine and feces
# Format: in vivo, Sprague Dawley rats
# Condition Details: P: plasma, U: urine, F: feces
Quantity Name: Matrix (metabolite observed by LC/MS)

| Compound | Quantity Name | Measured |
| --- | --- | --- |
| CNCC(c1ccc(O[C@@H]2O[C@H](C(=O)O)[C@@H](O)[C@H](O)[C@H]2O)cc1)C1(O)CCCCC1 (some centres unmarked) [Metabolite M13, N,O-didesmethylvenlafaxine O-glucuronide] | Matrix (metabolite observed by LC/MS) | P, U |
| CNCC(c1ccc(O)cc1)C1(O)CCCCC1 (centres unmarked) [Metabolite M10, N,O-didesmethylvenlafaxine] | Matrix (metabolite observed by LC/MS) | P, U, F |
| CN(C)CC(c1ccc(O[C@@H]2O[C@H](C(=O)O)[C@@H](O)[C@H](O)[C@H]2O)cc1)C1(O)CCCCC1 (some centres unmarked) [Metabolite M7, O-desmethylvenlafaxine O-glucuronide] | Matrix (metabolite observed by LC/MS) | P, U, F |
| CN(C)CC(c1ccc(O)cc1)C1(O)CCCCC1 (centres unmarked) | Matrix (metabolite observed by LC/MS) | P, U, F |

----------
# Experiment Description: Metabolites of DVS observed by LC/MS in dog plasma, urine and feces
# Assay type: in vivo, beagle dogs
# Condition Details: P: plasma, U: urine, F: feces

| Compound | Matrix (metabolite observed by LC/MS) |
| --- | --- |
| CNCC(c1ccc(O)cc1)C1(O)CCCCC1 (stereo not shown) [Metabolite M10, N,O-didesmethylvenlafaxine] | P, U, F |
| CNCC(c1ccc(O[C@@H]2O[C@H](C(=O)O)[C@@H](O)[C@H](O)[C@H]2O)cc1)C1(O)CCCCC1 (stereo partly shown) [Metabolite M13, N,O-didesmethylvenlafaxine O-glucuronide] | P, U |
| CN(C)CC(c1ccc(O[C@@H]2O[C@H](C(=O)O)[C@@H](O)[C@H](O)[C@H]2O)cc1)C1(O)CCCCC1 (stereo partly shown) [Metabolite M7, O-desmethylvenlafaxine O-glucuronide] | P, U, F |
| CN(C)CC(c1ccc(O)cc1)C1(O)CCCCC1 (stereo not shown) | P, U, F |
